Each recorded value in this set is attributed to ChEMBL document CHEMBL3102826.

The molecules listed here are annotated with their IC50.
Target: Dual specificity tyrosine-phosphorylation-regulated kinase 1A (Rattus norvegicus)
Experiment: Inhibition of rat recombinant 6xHis-tagged DYRK1A catalytic domain (1 to 502) expressed in Escherichia coli BL21 (DE3) using N-terminal fluorescein coupled KISGRLSPIMTEQ as substrate after 30 mins by HPLC analysis in presence of 50 uM ATP
ATTRIBUTE MEASURED: IC50 (nM)

INSERT INTO results (smi, attribute_measured, value_reported) VALUES
  ('Oc1ccc(-c2cnc3[nH]cc(-c4ccc(O)cc4)c3c2)cc1', 'IC50', 23.1),
  ('Oc1ccc(-c2cnc3[nH]cc(-c4ccc(O)c(O)c4)c3c2)c(O)c1', 'IC50', 14.3),
  ('Oc1ccc(-c2cnc3[nH]cc(-c4ccccc4)c3c2)c(O)c1', 'IC50', 150),
  ('Oc1ccc(-c2cnc3[nH]cc(-c4ccccc4)c3c2)cc1', 'IC50', 330),
  ('Oc1ccc(-c2cnc3[nH]cc(-c4ccccc4)c3c2)cc1O', 'IC50', 160),
  ('c1ccc(-c2cnc3[nH]cc(-c4ccccc4)c3c2)cc1', 'IC50', 410),
  ('COc1ccc(OC)c(-c2cnc3[nH]cc(-c4ccc(OC)c(OC)c4)c3c2)c1', 'IC50', 1670),
  ('Oc1cccc(-c2cnc3[nH]cc(-c4cccc(O)c4)c3c2)c1', 'IC50', 105),
  ('COc1ccc(-c2c[nH]c3ncc(-c4ccc(OC)cc4OC)cc23)cc1', 'IC50', 280),
  ('COc1ccc(-c2cnc3[nH]cc(-c4ccc(OC)c(OC)c4)c3c2)c(OC)c1', 'IC50', 2880),
  ('COc1ccc(-c2cnc3[nH]cc(-c4ccc(OC)c(OC)c4)c3c2)cc1OC', 'IC50', 57800),
  ('Oc1cccc(-c2cnc3[nH]cc(-c4ccccc4)c3c2)c1', 'IC50', 2700),
  ('Oc1ccc(-c2c[nH]c3ncc(-c4ccc(O)c(O)c4)cc23)cc1', 'IC50', 3),
  ('COc1ccc(-c2cnc3[nH]cc(-c4ccccc4)c3c2)cc1', 'IC50', 960),
  ('COc1ccc(-c2cnc3[nH]cc(-c4ccccc4)c3c2)cc1OC', 'IC50', 3080),
  ('Oc1ccc(-c2cnc3[nH]cc(-c4ccc(O)c(O)c4)c3c2)cc1O', 'IC50', 12.4),
  ('COc1ccc(-c2cnc3[nH]cc(-c4ccccc4)c3c2)c(OC)c1', 'IC50', 1170),
  ('COc1cccc(-c2cnc3[nH]cc(-c4ccccc4)c3c2)c1', 'IC50', 7490),
  ('COc1cccc(-c2cnc3[nH]cc(-c4cccc(OC)c4)c3c2)c1', 'IC50', 14600),
  ('COc1ccc(-c2c[nH]c3ncc(-c4ccc(OC)c(OC)c4)cc23)cc1', 'IC50', 460),
  ('Oc1ccc(O)c(-c2cnc3[nH]cc(-c4ccc(O)c(O)c4)c3c2)c1', 'IC50', 39.1),
  ('Oc1ccc(-c2c[nH]c3ncc(-c4ccc(O)cc4O)cc23)cc1', 'IC50', 11.7);

====

Experiment: Cytotoxicity against human KB cells assessed as growth inhibition at 10^-6 M after 72 hrs by resazurin dye-based fluorimetric analysis relative to control
Format: cell-based
Conditions: read-out: GI
ATTRIBUTE MEASURED: inhibition at 72 h, 1 µM (%)

INSERT INTO results (smi, value_reported) VALUES
  ('Oc1ccc(-c2cnc3[nH]cc(-c4ccc(O)c(O)c4)c3c2)c(O)c1', 0),
  ('Oc1ccc(-c2c[nH]c3ncc(-c4ccc(O)cc4O)cc23)cc1', 21),
  ('Oc1ccc(-c2cnc3[nH]cc(-c4ccc(O)c(O)c4)c3c2)cc1O', 2),
  ('Oc1ccc(-c2c[nH]c3ncc(-c4ccc(O)c(O)c4)cc23)cc1', 56),
  ('Oc1ccc(-c2cnc3[nH]cc(-c4ccc(O)cc4)c3c2)cc1', 51);
